Data provenance: PubChem BioAssay (NCATS)

- ASSAY_OVERVIEW: P-glycoprotein substrates identified in KB-3-1 adenocarcinoma cell line, qHTS therapeutic library screen (AID 1346986); also: nearly all actives have a fitted effect of over 60% in size
- EXPERIMENTAL_PARAMETERS: KB-3-1 parental cells viability, CellTiter-Glo, 72 h; series mostly up to 44.5 µM
Inconclusive results are not listed. Calls of active or inactive are those of the source. Calls follow the shape of the dose curve; as a rule, active = well fitted inhibition curve with a large enough effect; inconclusive = small, poorly fitted or top-dose-only effect; inactive = no such curve, though single readings can be large or run the other way. Where a SMILES comes first, the peptide text is derived from it. [ ]: non-standard residue; d: D form. PhLac = O=C(O)[CH](O)Cc1ccccc1; NMeV = CN[CH](C(=O)O)C(C)C

MOLECULE: CC(C)C(C(=O)N1CCCC1C(=O)O)N(C)C(=O)C(O)Cc1ccccc1 (stereo not drawn) (H-[PhLac]-[NMeV]-Pro-OH; configuration not given here)
outcome: inactive
--
MOLECULE: O=C(O[C@H]1[C@@H]2C[C@@H]3OC[C@@](O)([C@H]2[C@H](O[C@@H]2O[C@H](CO)[C@@H](O)[C@H](O)[C@H]2O)O3)[C@@H]1O)c1ccccc1
outcome: inactive
--
MOLECULE: CO[C@@]12CC3[C@@H]([C@@H](O)[C@@H](OC(C)=O)C4[C@](C)(COC(C)=O)CCC[C@]34C)[C@@H](C)C1=CC(=O)O2 (stereo partly drawn)
outcome: inactive
